- test.system: T1, human UHRF1 PHD finger, residues 299–366 (human, UniProt Q96T88 299-366)
- T1 chain: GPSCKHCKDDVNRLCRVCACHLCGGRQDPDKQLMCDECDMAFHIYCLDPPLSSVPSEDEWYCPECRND
- run.description: ITC
endpoint: Kd (µM)
Give just the numeric value; µM need not be written.

binder: SRRGARTLLSVQREKMARLRYMLLGGVRTHERRPTNKE (domain or fragment) [hDPPA3_(81-118) V85A]
endpoint: Kd
reported: 1.61

Now for another entry.
## Task Entry SRRGVRTALSVQREKMARLRYMLLGGVRTHERRPTNKE (domain or fragment) [hDPPA3_(81-118) L88A] : reported Kd = ?
## Result 1.28
